Just for reference, patent US20210023171A1 is where these values come from.

# system-under-test: T1, αvβ3 integrin on cells (U87MG glioblastoma cells; K562-αvβ3 cells) (UniProt P06756 31-1048; P05106 27-788)
# T1 construct: whole, on cells; also called cell surface αvβ3 integrin
# T1 sequence (P06756 31-1048, chain 1 of 2): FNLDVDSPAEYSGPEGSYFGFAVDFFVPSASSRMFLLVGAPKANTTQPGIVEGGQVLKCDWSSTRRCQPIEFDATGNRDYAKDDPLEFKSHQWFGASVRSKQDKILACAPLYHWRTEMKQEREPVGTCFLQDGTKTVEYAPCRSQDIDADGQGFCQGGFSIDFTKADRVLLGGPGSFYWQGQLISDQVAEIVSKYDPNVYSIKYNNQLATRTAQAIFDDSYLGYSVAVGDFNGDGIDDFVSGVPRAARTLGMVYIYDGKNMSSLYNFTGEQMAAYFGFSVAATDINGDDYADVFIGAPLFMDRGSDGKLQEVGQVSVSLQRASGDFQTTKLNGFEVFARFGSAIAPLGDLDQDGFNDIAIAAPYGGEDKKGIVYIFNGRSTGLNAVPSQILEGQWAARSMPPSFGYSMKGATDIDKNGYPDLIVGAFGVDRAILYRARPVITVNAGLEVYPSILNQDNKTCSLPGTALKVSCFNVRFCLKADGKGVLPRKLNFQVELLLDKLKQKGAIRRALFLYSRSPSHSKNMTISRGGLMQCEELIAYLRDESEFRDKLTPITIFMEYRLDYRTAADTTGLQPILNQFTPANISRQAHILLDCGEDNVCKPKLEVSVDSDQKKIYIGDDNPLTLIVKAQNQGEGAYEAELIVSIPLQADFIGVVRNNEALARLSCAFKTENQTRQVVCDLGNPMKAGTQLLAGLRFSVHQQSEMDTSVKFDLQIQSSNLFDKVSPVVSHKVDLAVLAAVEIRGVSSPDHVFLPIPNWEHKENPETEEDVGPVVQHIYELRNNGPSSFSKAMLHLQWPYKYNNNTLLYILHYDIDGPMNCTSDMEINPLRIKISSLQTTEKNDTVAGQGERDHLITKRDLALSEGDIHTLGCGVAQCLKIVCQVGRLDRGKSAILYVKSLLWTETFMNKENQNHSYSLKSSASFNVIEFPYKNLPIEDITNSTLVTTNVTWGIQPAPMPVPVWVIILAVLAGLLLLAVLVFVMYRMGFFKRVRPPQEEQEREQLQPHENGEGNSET
# T1 sequence (P05106 27-788, chain 2 of 2): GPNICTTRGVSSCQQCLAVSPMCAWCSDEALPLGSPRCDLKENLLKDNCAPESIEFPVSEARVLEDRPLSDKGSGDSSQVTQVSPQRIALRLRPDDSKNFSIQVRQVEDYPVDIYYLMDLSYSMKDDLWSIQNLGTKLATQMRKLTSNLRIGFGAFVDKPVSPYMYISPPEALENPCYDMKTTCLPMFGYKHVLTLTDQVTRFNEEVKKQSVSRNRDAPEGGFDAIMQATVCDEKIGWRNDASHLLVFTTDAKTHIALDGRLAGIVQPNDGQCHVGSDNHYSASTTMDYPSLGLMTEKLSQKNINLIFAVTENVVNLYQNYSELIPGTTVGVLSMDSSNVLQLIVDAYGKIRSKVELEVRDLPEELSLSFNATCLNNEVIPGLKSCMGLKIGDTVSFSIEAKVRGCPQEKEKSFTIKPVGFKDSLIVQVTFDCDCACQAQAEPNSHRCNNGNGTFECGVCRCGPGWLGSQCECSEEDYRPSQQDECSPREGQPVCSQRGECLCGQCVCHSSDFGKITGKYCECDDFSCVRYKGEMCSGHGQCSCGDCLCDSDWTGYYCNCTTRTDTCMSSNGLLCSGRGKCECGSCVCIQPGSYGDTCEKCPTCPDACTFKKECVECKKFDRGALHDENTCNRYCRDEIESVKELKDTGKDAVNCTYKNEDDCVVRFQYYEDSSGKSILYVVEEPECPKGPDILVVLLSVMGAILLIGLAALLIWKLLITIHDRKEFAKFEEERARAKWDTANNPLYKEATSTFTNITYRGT
# test-summary: direct equilibrium titration on K562-αvβ3 cells, anti-His flow cytometry
Kd strictly less than 2 nM = True. Otherwise False.

binder	assigned-category
recombinant engineered AgRP peptide 7E (FLAG and hexahistidine tagged) (peptide) DYKDDDDKGCVRLHESCLGQQVPCCDPAATCYCVGRGDDNLKCYCRHHHHHH	True
recombinant AgRP peptide 7C (FLAG and hexahistidine tagged) (peptide) DYKDDDDKGCVRLHESCLGQQVPCCDPAATCYCYGRGDNDLRCYCRHHHHHH	False
recombinant engineered AgRP peptide 6C (FLAG and hexahistidine tagged) (peptide) DYKDDDDKGCVRLHESCLGQQVPCCDPAATCYCTGRGDEKLRCYCRHHHHHH	False
recombinant engineered AgRP peptide 7A (FLAG and hexahistidine tagged) (also called 7A (5E); 5E) DYKDDDDKGCVRLHESCLGQQVPCCDPAATCYCSGRGDNDLVCYCRHHHHHH	True
recombinant engineered AgRP peptide 7J (FLAG and hexahistidine tagged) (also called 7J (6B); 6B) DYKDDDDKGCVRLHESCLGQQVPCCDPAATCYCEGRGDRDMKCYCRHHHHHH	False
